- system-name: cAMP-dependent protein kinase catalytic subunit PRKX (Homo sapiens) (UniProt P51817);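 further: values are mean percent inhibition of PRKX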
- Sequence (P51817 whole entry): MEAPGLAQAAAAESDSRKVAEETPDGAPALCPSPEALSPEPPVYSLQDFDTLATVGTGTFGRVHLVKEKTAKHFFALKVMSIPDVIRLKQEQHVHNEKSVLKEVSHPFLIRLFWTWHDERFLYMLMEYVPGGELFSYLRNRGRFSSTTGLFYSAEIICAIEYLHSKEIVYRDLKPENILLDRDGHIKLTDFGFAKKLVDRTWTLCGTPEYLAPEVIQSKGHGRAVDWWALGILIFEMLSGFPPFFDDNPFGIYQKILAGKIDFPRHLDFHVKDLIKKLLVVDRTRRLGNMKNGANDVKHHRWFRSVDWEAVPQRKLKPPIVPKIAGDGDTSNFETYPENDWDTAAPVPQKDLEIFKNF
- run-conditions: at 0.1 µM
Exercise: for every item that follows, state its recorded inhibition.
A number alone suffices; assume %.

Query block: I have this molecule here, CCCN(CCS(C)(=O)=O)Cc1ccc(-c2ccc3ncnc(Nc4ccc(OCc5cccc(F)c5)c(Cl)c4)c3c2)o1 , and I need its recorded inhibition.
Result block: 1.89

Query block: I have this molecule here, O=C(Nc1n[nH]c2cc(-c3ccc(F)cc3)ccc12)C1CC1 , and I need its recorded inhibition.
Result block: 2.23

Query block: I have this molecule here, CCc1nn2ncccc2c1-c1ccnc(NC2CC2)n1 , and I need its recorded inhibition.
Result block: 1.66

Query block: I have this molecule here, COc1ccc2c(-c3ccnc(Nc4cccc(OC(F)(F)F)c4)n3)cnn2n1 , and I need its recorded inhibition.
Result block: 2.02

Query block: I have this molecule here, CS(=O)(=O)CCNCc1coc(-c2ccc3ncnc(Nc4ccc(OCc5ccccc5)cc4)c3c2)c1 , and I need its recorded inhibition.
Result block: 1.12

src = ChEMBL document CHEMBL1961873
